- System: umbrella sedge (Cyperus difformis)
- method description: Test B flooded paddy test
- Type: in vivo
- experimental parameters: Flood, 31 g ai/ha; scale 0 to 100 (0 no effect, 100 complete control)
quantity measured: Sedge, Umbrella plant response rating
Numbers only.

Recorded results for 4 molecules are shown here.
molecule: CCn1c(Cc2ccccc2)ncc(C(=O)C2=C(O)CCCC2=O)c1=O
target system: umbrella sedge (Cyperus difformis)
Sedge, Umbrella plant response rating: 30
--
molecule: CCn1c(-c2cccc(Cl)c2)ncc(C(=O)C2=C(O)CCCC2=O)c1=O
target system: umbrella sedge (Cyperus difformis)
Sedge, Umbrella plant response rating: 0
--
molecule: CCCc1ncc(C(=O)C2=C(O)CCCC2=O)c(=O)n1Cc1cccc(OC)c1
target system: umbrella sedge (Cyperus difformis)
Sedge, Umbrella plant response rating: 0
--
molecule: O=C1CCCC(O)=C1C(=O)c1cnc(-c2cccc(F)c2)n(CCC(F)(F)F)c1=O
target system: umbrella sedge (Cyperus difformis)
Sedge, Umbrella plant response rating: 0

Please report Sedge, Umbrella plant response rating for every entry that follows.
1. O=C(C1=C(O)C2CCC(C2)C1=O)c1cnc(-c2cc(F)c(F)c(F)c2)n(C2CCCCC2)c1=O (stereo not drawn)
2. CCc1ccccc1-n1c(-c2ccccc2)ncc(C(=O)C2=C(O)CCCC2=O)c1=O
3. COCCn1c(-c2ccccc2)ncc(C(=O)C2=C(O)CCCC2=O)c1=O

Response:
1: 0; 2: 0; 3: 50
